- Test system: DU-145
- assay.comment: NCI tumour cell line growth inhibition, 48 h
The source made the active and inactive calls. Cut-off read from the data, not from the text of the source: active = GI50 up to about 1.1 µM and inactive = higher.
// classify into True (active), False (inactive)

Example entries and their recorded answers appear below.
compound: CCCC(C(=O)Nc1cccc2nc[nH]c12)C(=O)OCC (stereo not given)
category.label: False

compound: COc1cc(CC(C)N)ccc1O (stereo not given)
category.label: False

compound: O=C(NN=C(c1ccccc1)c1ccccc1)/C(O)=C/C(=O)c1ccc(Cl)cc1
category.label: False

compound: Cc1c(CNc2ccc(C(=O)NC(CC(=O)O)C(=O)O)cc2)ccc2nc(N)nc(N)c12 (stereo not given)
category.label: True

compound: COc1cc([C@@H]2c3cc4c(cc3[C@@H](Nc3ccc(NC(=O)c5cc([N+](=O)[O-])cn5C)cc3)[C@H]3COC(=O)[C@H]23)OCO4)cc(OC)c1O
category.label: True

compound: C/C(=N\O)C1CC2C=C(C#N)C1N(Cc1ccccc1)C2 (stereo not given)
category.label: False

compound: COc1ccc2c(c1)CC[C@@H]1[C@@H]2CC[C@]2(C)C(=O)/C(=C/c3ccc(O)c(OC)c3)C[C@@H]12
category.label: False

compound: COc1ccc(C23OCC(Cc4cc(OC)c(OC)cc42)C3CO)cc1OC (stereo not given)
category.label: False

compound: CCn1nc(C)c2c1C(=O)NCC(=O)N2
category.label: False

compound: CSc1c(C#N)c(=O)n(N)c2[nH]nc(C)c12
category.label: False

Tell me the assay call for Nc1n[n+]2cc(-c3ccccc3)n(CC(=O)c3ccccc3)c2s1 please.
False

Tell me the assay call for CC1C=CN(N(C)C)C2=C1C(=O)c1cnccc1C2=O (stereo not given) please.
True

Tell me the assay call for COC(=O)/C=C/c1ccc2c(c1)CCC2 please.
False

Tell me the assay call for COc1ccc2ccccc2c1C1NC(=O)c2ccccc2N1 (stereo not given) please.
False

Tell me the assay call for O=C(O)CNCCc1ccccc1 please.
False
